- method_summary: Drug uptake in male Sprague-Dawley rat Dorsal skin assessed as retention rat at 1 mg/ml, TOP measured after 30 mins by LC-MS/MS analysis
- Type: ADME, tissue-based, Zone of skin
- condition_description: in vivo, topical_or_ocular, 0.5 h
result_type: Drug uptake (%)

Consider the following illustrative entries.
- O=C1CCC(NC(=O)c2ccc(N3CCN(C4CCN(c5ccc(F)cc5)CC4)CC3)cc2)C(=O)N1 (stereo not given): 9.12
- O=C1CCC(N2C(=O)c3cccc(N4CCC(CN5CCN(c6ccc(C(F)(F)F)cc6)CC5)C4)c3C2=O)C(=O)N1 (stereo not given): 0.96
- O=C1CCC(NC(=O)c2ccc(N3CCN(CCC4CCN(c5ccc(F)cc5)CC4)CC3)cc2)C(=O)N1 (stereo not given): 3.92
- N#Cc1ccc(O[C@H]2CC[C@H](NC(=O)c3ccc(N4CCN(CC5CCN(c6ccc7c(c6)C(=O)N(C6CCC(=O)NC6=O)C7=O)CC5)CC4)cc3)CC2)cc1Cl (stereo not given in full): 0.69
- O=C1CCC(N2Cc3cc(OCC#CCN4CCN(CC#Cc5ccc(C(F)(F)F)cc5)CC4)ccc3C2=O)C(=O)N1 (stereo not given): 5.41
- N#Cc1ccc(O[C@H]2CC[C@H](NC(=O)c3ccc(N4CCC(CCN5CCN(c6ccc(C(=O)NC7CCC(=O)NC7=O)cc6)CC5)CC4)cc3)CC2)cc1Cl (stereo not given in full): 1
- N#Cc1ccc(O[C@H]2CC[C@H](NC(=O)c3ccc(N4CCN(CC5CCN(c6ccc(C(=O)NC7CCC(=O)NC7=O)cc6)C5)CC4)cc3)CC2)cc1Cl (stereo not given in full): 1.86
- N#Cc1ccc(O[C@H]2CC[C@H](NC(=O)c3ccc(C4CCN(CC5CCCN(c6ccc7c(c6)C(=O)N(C6CCC(=O)NC6=O)C7=O)C5)CC4)cc3)CC2)cc1Cl (stereo not given in full): 0.58
- O=C1CCC(N2Cc3cc(C#CCN4CCN(c5ccc(C(F)(F)F)cc5)CC4)ccc3C2=O)C(=O)N1 (stereo not given): 2.48
- N#Cc1ccc(O[C@H]2CC[C@H](NC(=O)c3ccc(N4CCN(C5CN(c6ccc7c(c6)C(=O)N(C6CCC(=O)NC6=O)C7=O)C5)CC4)cc3)CC2)cc1Cl (stereo not given in full): 1.41

1 = O=C1CCC(NC(=O)c2ccc(N3CCN(CC4CCN(c5ccc(F)cc5)CC4)CC3)cc2)C(=O)N1 (stereo not given)
2 = N#Cc1ccc(O[C@H]2CC[C@H](NC(=O)c3ccc(N4CCC(N5CCN(c6ccc(C(=O)NC7CCC(=O)NC7=O)cc6)CC5)CC4)cc3)CC2)cc1Cl (stereo not given in full)
3 = O=C1CCC(N2Cc3c(OCC#CCN4CCN(CC#Cc5ccc(C(F)(F)F)cc5)CC4)cccc3C2=O)C(=O)N1 (stereo not given)
4 = N#Cc1ccc(O[C@H]2CC[C@H](NC(=O)c3ccc(C4CCN(CC5CN(c6ccc7c(c6)C(=O)N(C6CCC(=O)NC6=O)C7=O)C5)CC4)cc3)CC2)cc1Cl (stereo not given in full)
5 = O=C1CCC(N2C(=O)c3ccc(N4CC(CN5CCC(c6ccc(C(F)(F)F)cc6)CC5)C4)cc3C2=O)C(=O)N1 (stereo not given)
Order the items by recorded Drug uptake; the first position goes to the largest value. Give your ranking as a list of the labels in the requested order. 5, 1, 3, 2, 4
(5: 8.45%, 1: 4.99%, 3: 1.91%, 2: 1.31%, 4: 0.6%)

1 = O=C1CCC(N2C(=O)c3ccc(N4CCCC(CN5CCC(c6ccc(C(F)(F)F)cc6)CC5)C4)cc3C2=O)C(=O)N1 (stereo not given)
2 = N#Cc1ccc(O[C@H]2CC[C@H](NC(=O)c3ccc(N4CCC(CN5CCN(c6ccc7c(c6)C(=O)N(C6CCC(=O)NC6=O)C7=O)CC5)CC4)cc3)CC2)cc1Cl (stereo not given in full)
3 = N#Cc1ccc(O[C@H]2CC[C@H](NC(=O)c3ccc(CCCCN4CCN(c5ccc(C(=O)NC6CCC(=O)NC6=O)cc5)CC4)cc3)CC2)cc1Cl (stereo not given in full)
4 = O=C1CCC(N2C(=O)c3cc(F)c(N4CC(CN5CCC(c6ccc(C(F)(F)F)cc6)CC5)C4)cc3C2=O)C(=O)N1 (stereo not given)
5 = O=C1CCC(N2C(=O)c3ccc(N4CCN(CC5CCN(c6ccc(C(F)(F)F)cc6)CC5)CC4)cc3C2=O)C(=O)N1 (stereo not given)
Could you please order the items by Drug uptake, going from the lowest number to the highest? Provide the ranking by listing each label in its place in the requested order. 2, 3, 4, 1, 5
(2: 0.62%, 3: 1.49%, 4: 2.22%, 1: 5.75%, 5: 8.73%)

I = N#Cc1ccc(O[C@H]2CC[C@H](NC(=O)c3ccc(N4CCN(CC5CCN(c6ccc7c(c6)C(=O)N(C6CCC(=O)NC6=O)C7=O)C5)CC4)cc3)CC2)cc1Cl (stereo not given in full)
II = O=C1CCC(N2C(=O)c3ccc(N4CCC(CN5CCC(c6ccc(C(F)(F)F)cc6)CC5)C4)cc3C2=O)C(=O)N1 (stereo not given)
Of I and II , which carries the smaller reported Drug uptake figure? Use the label to indicate which entry you chose. I
(I: 0.74%, II: 1.94%)

I = N#Cc1ccc(O[C@H]2CC[C@H](NC(=O)c3ccc(N4CCC(CN5CCN(c6ccc(C(=O)NC7CCC(=O)NC7=O)cc6)CC5)CC4)cc3)CC2)cc1Cl (stereo not given in full)
II = O=C1CCC(N2C(=O)c3ccc(N4CC(N5CCN(c6ccc(C(F)(F)F)cc6)CC5)C4)cc3C2=O)C(=O)N1 (stereo not given)
Could you kindly indicate whether I or II has the higher Drug uptake value? Write down the label of the entry you select. II
(II: 5.84%, I: 0.81%)

Data origin: ChEMBL document CHEMBL6078684
